# System: MDA-MB-231;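 also: viability of the cells left after supernatant collection, read with Deep Blue dye added for 4 h, as absorbance at 570 nm minus 600 nm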
# Assay explanation: cell viability relative to vehicle unstimulated control (fraction); higher = more viable cells
# Test conditions: pre-treatment time: 18 h then 24 h IFNg/TNF
Would you mind telling me the reported cell viability of each entry?

Input: What does the record list as cell viability for CC(=O)OC1CCC2(C)C(CCC3(C)C2CC=C2C4C(C)C(C)CCC4(C(=O)O)CCC23C)C1(C)C (stereo unspecified) [Ursolic acid acetate] (compound dose: 10 uM) ?
Output: 1.11

Input: Name the reported cell viability value associated with the molecule C=C1[C@H](OC(=O)C(C)C)[C@@H](O)[C@@H](OC(=O)c2cccnc2)C(C)(C)/C=C/[C@H](C)[C@H](OC(C)=O)[C@@]2(O)C[C@@](C)(OC(C)=O)[C@H](OC(=O)c3ccccc3)[C@@H]2[C@H]1OC(C)=O [Jatrophane 3] (compound dose: 10 uM)
Output: 1.04

Input: Look up cell viability: OC[C@H]1O[C@@H](O[C@@H]2OC=C[C@H]3[C@H](O)[C@@H]4O[C@]4(CO)[C@@H]23)[C@H](O)[C@@H](O)[C@@H]1O [Catalpol] (compound dose: 10 uM)
Output: 0.896

Input: What value of cell viability has been reported for the following molecule? O=C(O)/C=C/c1ccccc1O [O-coumaric acid] (compound dose: 10 uM)
Output: 0.976

Input: Any idea what its cell viability is? The molecule is C=C1CC/C=C(\C)CC[C@@H]2[C@@H]1CC2(C)C [β-Caryophyllene] (compound dose: 10 uM)
Output: 0.992

Input: I would be grateful if you could share the reported cell viability for C[C@H]1[C@H](C)CC[C@]2(C(=O)O[C@@H]3O[C@H](CO[C@@H]4O[C@H](CO)[C@@H](O[C@@H]5O[C@@H](C)[C@H](O)[C@@H](O)[C@H]5O)[C@H](O)[C@H]4O)[C@@H](O)[C@H](O)[C@H]3O)CC[C@]3(C)C(=CC[C@@H]4[C@@]5(C)C[C@@H](O)[C@H](O)[C@@](C)(CO)[C@@H]5[C@H](O)C[C@]43C)[C@H]12 [Madecassoside] (compound dose: 10 uM) .
Output: 1.03

Input: What measured cell viability goes with C[C@H]1COC2=C1C(=O)C(=O)c1c2ccc2c1CCCC2(C)C [Cryptotanshinone] (compound dose: 10 uM) ?
Output: 0.885

Input: GET /values?readout=cell viability&item= C[C@H]1[C@H](C)CC[C@]2(CO)CC[C@]3(C)C(=CC[C@@H]4[C@@]5(C)CC[C@H](O)C(C)(C)[C@@H]5CC[C@]43C)[C@H]12 [Uvaol] (compound dose: 10 uM)
Output: 1.03

Input: Give the measured cell viability of C[C@@H]1O[C@@H](O[C@H]2[C@H](OC(=O)[C@]34CCC(C)(C)C[C@H]3C3=CC[C@@H]5[C@@]6(C)C[C@H](O)[C@H](O[C@@H]7O[C@H](CO)[C@@H](O)[C@H](O)[C@H]7O)C(CO)(CO)[C@@H]6CC[C@@]5(C)[C@]3(C)C[C@H]4O)OC[C@H](O)[C@@H]2O)[C@H](O)[C@H](O)[C@H]1O[C@@H]1OC[C@@H](O)[C@H](O)[C@H]1O [Deapioplatycodin D] (compound dose: 10 uM) .
Output: 0.93

Input: GET /values?readout=cell viability&item= C[C@@H]1O[C@@H](O[C@H]2[C@H](O[C@H]3CC[C@@]4(C)[C@@H](CC[C@]5(C)[C@@H]4CC=C4[C@@H]6CC(C)(C)CC[C@]6(C(=O)O[C@@H]6O[C@H](CO[C@@H]7O[C@H](CO)[C@@H](O)[C@H](O)[C@H]7O)[C@@H](O)[C@H](O)[C@H]6O)CC[C@]45C)[C@]3(C)CO)OC[C@H](O)[C@@H]2O)[C@H](O)[C@H](O[C@@H]2O[C@H](CO)[C@@H](O)[C@H](O)[C@H]2O)[C@H]1O [Macranthoidin A] (compound dose: 10 uM)
Output: 0.901

Input: Given the entry C=C1C[C@@]23CC[C@H]4[C@@](C)(CCC[C@@]4(C)C(=O)O)[C@@H]2CC[C@@H]1C3 [Kaurenoic acid] (compound dose: 10 uM) , report its measured cell viability.
Output: 1.01

Input: Fill in the blank: the reported cell viability of CC1CCC(C(C)C)C(O)C1 (single isomer, unassigned; (-)) [(-)-Menthol] (compound dose: 10 uM) is ____.
Output: 0.899

Input: Look up cell viability for this molecule: CC=C1[C@H](O[C@@H]2O[C@H](CO)[C@@H](O)[C@H](O)[C@H]2O)OC=C(C(=O)OC)[C@H]1CC(=O)OC[C@H]1O[C@@H](OCCc2ccc(O)cc2)[C@H](O)[C@@H](O)[C@@H]1O (stereo in doubt) [Specnuezhenide] (compound dose: 10 uM)
Output: 1

Input: # lookup: cell viability of CC(=O)O[C@@H]1C[C@@]23C[C@@]24CC[C@H](O[C@@H]2OC[C@H](O)[C@H](O)[C@H]2O)C(C)(C)[C@@H]4CC[C@H]3[C@]2(C)[C@@H](O)[C@]34O[C@H](C[C@@H](C)[C@@H]3[C@@]12C)[C@@H](C(C)(C)O)O4 [Cimiracemoside D] (compound dose: 10 uM)
Output: 1.02

Input: Recorded cell viability for CC(=O)O[C@]12CCC(C)=CC[C@]13CC[C@H]2[C@@](C)(/C=C/C=C(\C)C(=O)O)OC3=O [Pseudolaric Acid A] (compound dose: 10 uM) , please?
Output: 0.834

Input: What measured cell viability goes with C=C1[C@H](OC(=O)C(C)C)[C@@H](O)[C@@H](OC(C)=O)C(C)(C)/C=C/[C@H](C)[C@H](OC(C)=O)[C@@]2(O)C[C@@](C)(OC(C)=O)[C@H](OC(=O)c3ccccc3)[C@@H]2[C@H]1OC(C)=O [Jatrophane 4] (compound dose: 10 uM) ?
Output: 1.1
